# Experimental Target: T1, human ferroportin (SLC40A1) fused in frame with GFP, stably expressed in HEK293 cells (human, UniProt Q9NP59 1-571)
# T1 sequence (looked up): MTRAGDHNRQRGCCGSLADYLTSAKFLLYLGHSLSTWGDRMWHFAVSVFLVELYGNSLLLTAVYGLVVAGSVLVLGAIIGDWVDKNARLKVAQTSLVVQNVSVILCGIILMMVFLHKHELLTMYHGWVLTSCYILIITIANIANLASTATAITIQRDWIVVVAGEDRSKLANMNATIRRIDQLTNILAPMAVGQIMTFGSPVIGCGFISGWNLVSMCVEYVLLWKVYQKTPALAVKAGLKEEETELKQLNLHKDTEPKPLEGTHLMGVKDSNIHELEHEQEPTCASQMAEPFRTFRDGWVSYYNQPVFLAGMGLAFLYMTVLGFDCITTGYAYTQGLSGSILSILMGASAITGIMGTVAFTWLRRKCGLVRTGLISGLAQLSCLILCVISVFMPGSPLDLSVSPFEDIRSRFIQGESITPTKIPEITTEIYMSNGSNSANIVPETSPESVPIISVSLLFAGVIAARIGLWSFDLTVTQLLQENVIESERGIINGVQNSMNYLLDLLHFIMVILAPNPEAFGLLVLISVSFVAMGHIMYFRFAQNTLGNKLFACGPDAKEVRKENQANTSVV
# Assay Procedure: cell-based or functional assay
Primed or numbered codes have the meaning given here. * marks the point of attachment. PEG8″ = PEG8 spacer conjugated to the Lys side chain; PEG8′ = PEG8 conjugated to the Lys side chain; Me3Gly = C[N+](C)(C)CC(=O)*; Isovaleryl = CC(C)CC(=O)*
Parameter Measured: Potency EC50 (nM)
Answers are plain numbers, in nM.

// worked examples, Potency EC50 included
>  <Binder>
Isovaleryl-DTHFPCIIFGPRSKGWVCKK-NH2 (cysteine pairing not given here) [Compound 145]

>  <Parameter Measured>
Potency EC50

>  <Numeric Value>
9

$$$$
>  <Binder>
Isovaleryl-DTHFPCIIFGPRSKGVC-NH2 (not fully specified (bridges); cysteine pairing not given here) [Compound 114]

>  <Parameter Measured>
Potency EC50

>  <Numeric Value>
18

$$$$
>  <Binder>
H-DTHFPCIIFGPRSKGWVCM-NH2 (cysteine pairing not given here) [Compound 21]

>  <Parameter Measured>
Potency EC50

>  <Numeric Value>
46

$$$$

Dear colleague, could you send me Potency EC50 for each of the items below? Thanks.
1. Isovaleryl-DTHFPICIFGPRSK(PEG8″)GWVC-NH2 (not fully specified (bridges); cysteine pairing not given here) [Compound 176]
2. Isovaleryl-DTHFPCIKFGPRSKGWVCK(Me3Gly)-NH2 (cysteine pairing not given here) [Compound 159]
3. Isovaleryl-DTHFPCIK(PEG8′)FGPRSKGWVCK-NH2 (cysteine pairing not given here) [Compound 149]
4. DTHFPCIKFKPRSKGWVCK (N-terminal isovaleric acid; PEG3-Palm on side chain of Lys 10; C-terminal amide) [Compound 200]

[A]
1: 6; 2: 17; 3: 9; 4: 6

Hi, could you look up Potency EC50 for each item in my list?
1. H-DTHFPCIAF-NH2 [Compound 51]
2. DTHFPCIKFKPRSKGWVCK (PEG3-IVA on side chain of Lys 10; C-terminal amide) [Compound 210]

[A]
1: 382; 2: 457
